Tested on: MS2 coat protein
Experiment: apparent KD of MS2 coat protein; designed switch direction (-1 OFF switch, 1 ON switch): 1; higher = weaker reporter binding
Conditions: input ligand: microRNA oligo, concentration not stated
Observable: apparent KD of MS2 coat protein (nM)
Give bare numbers, in nM.

Could I get apparent KD of MS2 coat protein for every one of these entries?
1. CCGUCGGAGGUAGGAUAUGGAGCCUUAUUGGCUCCAGAAGGAUCAAAUAAAUUAACAAACAUGAGGAUCACCCAUGUCCGACGG [Eli NG1ss - 86] (Eterna round: R96, puzzle: Same State NG 1)
2. AAAUAAAACACAGGAUAUGCAGCCAAUACGGCGGCAGAAGGGUGAGACAUGAGGAUCACCCAUGUACACGUCCCACAGACGUGC [Mabege] (Eterna round: R96, puzzle: Same State NG 1)
3. CUUUUUAAUGCAGGAUAUGAUCAACAUGAGGAUCACCCAUGUGGUGUUGUGAGUAAGGAGAGUGAUCAGAAGGGCAUCUCCUCA [SS-NG2-LRO06] (Eterna round: R96, puzzle: Same State NG 2)

OUTPUT:
1: 331; 2: 89.9; 3: 73.6

* * *

Could you please report measured apparent KD of MS2 coat protein for the items listed next?
Test system: MS2 coat protein
Assay: apparent KD of MS2 coat protein; designed switch direction (-1 OFF switch, 1 ON switch): -1; higher = weaker reporter binding
Conditions: input ligand: none
Numbers only, in nM.

Solved entries:
{"columns": ["Record sequence", "apparent KD of MS2 coat protein (nM)"],
 "data": [
  ["AGCACGCUUUUGCUCGAUCACAUGAGGAUCACCCAUGUGUGCUAAUAGGCCAAGGUGAAAGCCUCAGACAUAGUUUA [Eternabot (L1) Solution 1] (Eterna round: R97, puzzle: Sensor, turn-off variant 1)", 173],
  ["ACAUUGAAUGUGAGGAUAUCGAUGUGAUGGGUUGUCGAGAAGGCACAUGAGGAUCACCCAUGUGGGAUGUAGCA [JR_BMEx4_Sub033] (Eterna round: R97, puzzle: Brourd's mod of Exclusion 4)", 91.2],
  ["AAACGGUAAGGAUAUCGGGCAACGGACAUGAGGAUCACCCAUGUGAACCUGCGUAUCCUCCGAGAAGGUACAAAAG [Diinbibe] (Eterna round: R97, puzzle: Exclusion 5)", 10.9]
]}

Could I get apparent KD of MS2 coat protein for every one of these entries?
1. UAGGCUUUAGGAUAUGCGUGUUGUAGUCGGCGAUGUGGUUCACAUGAGGAUCACCCAUGUAGAAGGAAAGUUUA [-17.2, -17 kcal, 26% A] (Eterna round: R97, puzzle: Exclusion 2)
2. AACAAAACGCGAGGAUAUCGCCAACAUGAGGAUCACCCAUGUCACGGGUGCAAAUGUCUUCUAGGCGAGAAGGCGCAUCCAUAC [Diatza] (Eterna round: R96, puzzle: Exclusion NG 2)

OUTPUT:
1. 104
2. 641

* * *

Tested on: MS2 coat protein
Assay: apparent KD of MS2 coat protein; higher = weaker reporter binding
Details: Eterna round: R107; input ligand: theophylline 2 mM
Outcome: Y for apparent KD of MS2 coat protein of at least 50 nM; N for anything lower.

These solved cases illustrate the format of a correct answer.
{"columns": ["Record sequence", "Assigned class"],
 "data": [
  ["AAUGUAUGGCACAUGAGGAUCACCCAUGUGCGAGGACCGGUACGGCCGCCACUCGGUCCUGGGAUCUUAAUACUAUACAUUAAUG [XTryp A #19]", "N"],
  ["GAUUACAUGAGGAUCACCCAUGUAACUGAAGGAGCGGUGAUAAAGCCAGGUAGGUCGCAGAACGACAUGUGGUUCAUCCAUGUAA [#16 Exclusion - Arginine A]", "N"],
  ["UGGUACAUGGCGGCCGCCACUUCACGUAAAAUAAAAACUUGAGGAUCACCCAAGUAAUAAGUUGGGAGGACCGGGUCAUGUACCU", "N"]
]}

INPUT: Item GGUGGGAGCAACGAUACCAGCUACAUGAGGAUCACCCAUGUGGAAUGGGAGUCAACAGCGAGCCCUUGGCAGCGUUAGACCCAAA [Bebeeserdi] with apparent KD of MS2 coat protein of 50 nM or above?
OUTPUT: Y

INPUT: Item ACCGCAUCCGUAUAGGAUGCGGCCCAUGAAGGAGCGUGGGAAACCACAGGUAGGUCGCAUGACAUGAGGAUCACCCAUGUUUAUU [Matrix] with apparent KD of MS2 coat protein of 50 nM or above?
OUTPUT: N

INPUT: Item GCCUAGCAUCGAAGGAGCGGGCAUUACGCGCGAAAGCGCGAUACUUGAGGAACACCCAAGUCCCAGGUAGGUCGCGAUGCUAGGC [SSAB Alternative Aptamer #3 NP+V+V2] with apparent KD of MS2 coat protein of 50 nM or above?
OUTPUT: Y

Where these numbers come from: the supplement of paper PMC9170038
